# experimental-target: human TASK-1 (Homo sapiens, UniProt O14649)
# Sequence (O14649 whole entry): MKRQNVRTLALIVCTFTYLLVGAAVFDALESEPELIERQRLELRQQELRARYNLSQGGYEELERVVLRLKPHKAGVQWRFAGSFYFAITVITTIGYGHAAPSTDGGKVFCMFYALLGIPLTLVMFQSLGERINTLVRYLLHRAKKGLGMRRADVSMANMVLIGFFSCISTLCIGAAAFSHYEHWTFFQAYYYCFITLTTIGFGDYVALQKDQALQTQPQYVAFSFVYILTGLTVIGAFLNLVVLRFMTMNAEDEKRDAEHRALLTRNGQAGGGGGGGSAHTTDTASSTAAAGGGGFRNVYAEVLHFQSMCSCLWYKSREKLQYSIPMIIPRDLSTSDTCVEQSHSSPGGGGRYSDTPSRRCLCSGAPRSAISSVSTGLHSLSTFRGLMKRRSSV
# protocol-details: Inhibition of recombinant TASK-1 in stably transfected CHO cells, KCl-induced depolarization, voltage-sensitive dye (B-2)
# Format: cell-based
# Parameters: expressed in transfected cells; host or cells: stably transfected CHO cells
# measurement-conditions: depolarization induced by 40 mM potassium chloride, some mean values from multiple determinations

>  <compound>
O=C(C1CCOC1)N1C2COCC1CN(Cc1c(-c3ccc(Cl)cc3)nc3ccccn13)C2 (centres unmarked)

>  <IC50>
1600 nM

$$$$
>  <compound>
COc1cccc(C(=O)N2CC3CCC(C2)N3Cc2c(-c3ccc(Br)cc3)nc3ccccn23)n1

>  <IC50>
134 nM

$$$$
>  <compound>
COc1ccc(Cl)c(C(=O)N2CC3CCC2CN3Cc2c(-c3ccc(Cl)cn3)nc3ccccn23)n1 (single isomer, unassigned) [Example 67]

>  <IC50>
990 nM

$$$$
>  <compound>
COc1ccc(Cl)c(C(=O)N2C3COCC2CN(Cc2c(-c4ccc(Cl)cc4)nc4ccccn24)C3)n1

>  <IC50>
270 nM

$$$$
>  <compound>
O=C(Nc1c(F)cccc1F)N1C2CCC1CN(Cc1c(-c3ccc(Cl)cc3)nc3ccccn13)C2

>  <IC50>
990 nM

$$$$
>  <compound>
O=C(C1CCCC1)N1CC2CCC1CN2Cc1c(-c2ccc(Cl)cc2)nc2ccccn12 (single isomer, unassigned) [Example 38]

>  <IC50>
790 nM

$$$$
>  <compound>
COc1ccc(F)c(C(=O)N2C[C@@H]3CC[C@H]2CN3Cc2c(-c3ccc(Cl)cc3)nc3ccccn23)n1 (single isomer, unassigned; enantiomer 1)

>  <IC50>
790 nM

$$$$
>  <compound>
O=C(C1CCCC1)N1CC2CCC1CN2Cc1c(-c2ccc(Cl)cc2)nc2ccccn12 (single isomer, unassigned) [Example 37]

>  <IC50>
350 nM

$$$$
>  <compound>
O=C(C1CCCCC1)N1CC2CCC1CN2Cc1c(-c2ccc(Cl)cc2)nc2ccccn12 (single isomer, unassigned)

>  <IC50>
880 nM

$$$$
>  <compound>
O=C(c1cccc(OC(F)(F)F)c1)N1C2CC1CN(Cc1c(-c3ccc(Cl)cc3)nc3ccccn13)C2

>  <IC50>
1100 nM

$$$$
>  <compound>
CC(C)c1ccccc1C(=O)N1C2COCC1CN(Cc1c(-c3ccc(Cl)cc3)nc3ccccn13)C2

>  <IC50>
160 nM

$$$$
>  <compound>
Cc1ccc(F)cc1C(=O)N1CC2CCC(C1)N2Cc1c(-c2ccc(Cl)cc2)nc2ccccn12

>  <IC50>
766 nM

$$$$
>  <compound>
COc1cccc(C(=O)N2C3COCC2CN(Cc2c(-c4ccc(Cl)cc4)nc4ccccn24)C3)n1

>  <IC50>
460 nM

$$$$
>  <compound>
O=C(c1cccc(OC(F)(F)F)c1)N1CC2CCC1CN2Cc1c(-c2ccc(Cl)cc2)nc2ccccn12 (single isomer, unassigned)

>  <IC50>
390 nM

$$$$
>  <compound>
CN(C(=O)N1C2CCC1CN(Cc1c(-c3ccc(Cl)cc3)nc3ccccn13)C2)c1ccccc1

>  <IC50>
5200 nM

$$$$
>  <compound>
O=C(Nc1c(Cl)cccc1Cl)N1C2CCC1CN(Cc1c(-c3ccc(Cl)cc3)nc3ccccn13)C2

>  <IC50>
1200 nM

$$$$
>  <compound>
O=C(C1CCC1)N1C2CC1CN(Cc1c(-c3ccc(Cl)cc3)nc3ccccn13)C2

>  <IC50>
1700 nM

$$$$
>  <compound>
O=C(c1cccc(Cl)c1)N1C2CC1CN(Cc1c(-c3ccc(Cl)cc3)nc3ccccn13)C2

>  <IC50>
480 nM

$$$$
>  <compound>
O=C(OC1CCCC1)N1C2CCC1CN(Cc1c(-c3ccc(Cl)cc3)nc3ccccn13)C2

>  <IC50>
730 nM

$$$$
>  <compound>
COc1cccc(C(=O)N2CC3CCC(C2)N3Cc2c(-c3ccc(Cl)cc3)nc3ccccn23)n1

>  <IC50>
895 nM

$$$$
>  <compound>
COc1ccc(F)cc1C(=O)N1CC2CCC(C1)N2Cc1c(-c2ccc(Cl)cc2)nc2ccccn12

>  <IC50>
827 nM

$$$$
>  <compound>
O=C(c1ccccc1F)N1C2CCC1CN(Cc1c(-c3ccc(Cl)cc3)nc3ccccn13)C2

>  <IC50>
277 nM

$$$$
>  <compound>
CC(C)N(C)C(=O)N1C2COCC1CN(Cc1c(-c3ccc(Cl)cc3)nc3ccccn13)C2

>  <IC50>
3000 nM

$$$$
>  <compound>
COc1ccc(F)c(C(=O)N2CC3CCC2CN3Cc2c(-c3ccc(Br)cc3)nc3ccccn23)n1 (racemic)

>  <IC50>
1000 nM

$$$$
>  <compound>
COc1ccc(F)c(C(=O)N2C3COCC2CN(Cc2c(-c4ccc(Cl)cc4)nc4ccccn24)C3)n1

>  <IC50>
770 nM

$$$$
>  <compound>
COc1ccc(F)c(C(=O)N2C3CCC2CN(Cc2c(-c4ccc(Br)cc4)nc4ccccn24)C3)n1

>  <IC50>
160 nM

$$$$
>  <compound>
O=C(N1CCCCC1)N1C2CCC1CN(Cc1c(-c3ccc(Cl)cc3)nc3ccccn13)C2

>  <IC50>
270 nM

$$$$
>  <compound>
O=C(c1cccc(OCC(F)(F)F)n1)N1C2COCC1CN(Cc1c(-c3ccc(Cl)cc3)nc3ccccn13)C2

>  <IC50>
810 nM

$$$$
>  <compound>
COc1cccc(C(=O)N2CC3CCC2CN3Cc2c(-c3ccc(C(C)C)cc3)nc3ccccn23)n1 (single isomer, unassigned)

>  <IC50>
680 nM

$$$$

Cited source for all entries: patent US20210024545A1
